System: hepatocytes
assay overview: RNA-seq of hepatocytes treated with Phase III failure compounds
stated conditions: RNA-seq, Phase III failure compounds, hepatocytes; significance: FPKM≥0.5, log 2(fold-change)≥1, q-value≥0.05 (so in the source)
Structures can show the parent of a compound that is named as a salt.
Classify as follows. Reported Number (#) of genes having significantly changed expression greater than or equal to 40: YES. Reported Number (#) of genes having significantly changed expression below: NO.

# example entries with known answers
[
  {
    "compound": "CC(C)[C@H](O)C(=O)N[C@@H](C)C(=O)N[C@@H]1C(=O)N(C)CCc2ccccc21",
    "class assignment": "NO"
  },
  {
    "compound": "Fc1ccc(C(OCCN2CCN(CCCc3ccccc3)CC2)c2ccc(F)cc2)cc1",
    "class assignment": "NO"
  },
  {
    "compound": "CCC(CC)CC1(C(=O)Nc2ccccc2SC(=O)C(C)C)CCCCC1",
    "class assignment": "YES"
  },
  {
    "compound": "COc1nc(C)cnc1NS(=O)(=O)c1cccnc1-c1ccc(-c2nnco2)cc1",
    "class assignment": "YES"
  },
  {
    "compound": "O=C(N[C@H]1CN2CCC1CC2)c1cc2cccc(Cl)c2s1 [EVP-6124 (hydrochloride) (encenicline), encenicline]",
    "class assignment": "YES"
  }
]

**Q:** Say whether Cc1ccc2c(c1)c1c(n2CCc2ccc(C)nc2)CCN(C)C1 [Latrepirdine (dihydrochloride) (57), Latrepirdine] shows Number (#) of genes having significantly changed expression of 40 or more.
**A:** NO

**Q:** Say whether CCC(CC)[C@H](NC(C)=O)[C@@H]1[C@H](O)[C@@H](C(=O)O)C[C@H]1N=C(N)N shows Number (#) of genes having significantly changed expression of 40 or more.
**A:** NO
